# Tested on: Low Density Lipoprotein
# ASSAY PROTOCOL: Inhibition of Copper Ion Mediated Oxidation of Low Density Lipoprotein
# Type: biochemical
# CONDITION DESCRIPTION: Cu+2 mediated oxidation of rabbit or monkey LDL, 37° C., 90 minutes, 532 nm
pIC50: −log10 of the molar value.
Overview of recorded pIC50 for various compounds
PARAMETER MEASURED: pIC50

Cc1oc(-c2cc(C(C)(C)C)c(O)c(C(C)(C)C)c2)nc1CCOc1ccc(CN(O)C(N)=O)cc1; 6.74
Cc1oc(-c2ccc(C(F)(F)F)cc2)nc1CCOc1ccc(CN(O)C(N)=O)cc1; 6.09
Cc1oc(-c2ccccc2)nc1CCOc1ccc(CN(O)C(N)=O)cc1; 6.16
Cc1oc(-c2ccccc2)nc1CCOc1ccc(C(C)N(O)C(N)=O)cc1 (stereo not shown); 5.89

###

Overview of recorded inhibition at 10 µM for various compounds
# TEST TARGET: 5-Lipoxygenase (Homo sapiens)
# Construct: endogenous in cells; host or cells: whole blood of male human donors (results per 10^6 neutrophils)
# Sequence (P09917 1-674): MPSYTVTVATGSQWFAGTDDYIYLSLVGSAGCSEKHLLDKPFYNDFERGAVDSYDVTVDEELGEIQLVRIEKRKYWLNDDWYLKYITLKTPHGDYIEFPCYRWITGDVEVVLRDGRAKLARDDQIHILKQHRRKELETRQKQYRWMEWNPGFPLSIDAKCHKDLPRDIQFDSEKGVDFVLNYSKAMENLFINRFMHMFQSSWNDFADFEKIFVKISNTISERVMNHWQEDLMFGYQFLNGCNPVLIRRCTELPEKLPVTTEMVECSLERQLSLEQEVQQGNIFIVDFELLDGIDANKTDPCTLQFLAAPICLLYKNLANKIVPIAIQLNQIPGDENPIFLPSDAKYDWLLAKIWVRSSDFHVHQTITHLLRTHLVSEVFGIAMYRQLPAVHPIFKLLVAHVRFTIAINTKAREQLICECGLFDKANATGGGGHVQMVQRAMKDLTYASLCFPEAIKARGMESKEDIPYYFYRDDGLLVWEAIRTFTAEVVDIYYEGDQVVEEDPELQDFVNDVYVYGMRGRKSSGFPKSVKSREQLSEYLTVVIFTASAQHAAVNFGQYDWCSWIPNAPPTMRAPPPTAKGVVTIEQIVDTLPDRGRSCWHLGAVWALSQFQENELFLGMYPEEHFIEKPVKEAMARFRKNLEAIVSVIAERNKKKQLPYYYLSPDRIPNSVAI
# ASSAY PROTOCOL: Inhibition of 5-Lipoxygenase in Human Whole Blood (ionophore A23187-stimulated LTB4)
# Type: cell-based
# CONDITION DESCRIPTION: 10 μM
PARAMETER MEASURED: inhibition at 10 µM

Cc1cc(OCCc2nc(-c3ccccc3)oc2C)cc(C)c1CN(O)C(N)=O; 42%
Cc1oc(-c2cc(C(C)(C)C)c(O)c(C(C)(C)C)c2)nc1CCOc1ccc(CN(O)C(N)=O)cc1; 83%
CN(CCOc1ccc(CN(O)C(N)=O)cc1)c1nc2ccccc2o1; 60%
COC(=O)N(O)Cc1ccc(OCCN(C)c2nc3ccccc3o2)cc1; 77%
NC(=S)N(O)Cc1ccc(OCCc2csc(-c3ccccc3)n2)cc1; 94%

###

# TEST TARGET: 5-Lipoxygenase (Homo sapiens)
# Construct: endogenous in cells; host or cells: whole blood of male human donors (results per 10^6 neutrophils)
# ASSAY PROTOCOL: Inhibition of 5-Lipoxygenase in Human Whole Blood (ionophore A23187-stimulated LTB4)
# Assay type: cell-based
# CONDITION DESCRIPTION: 1 μM
PARAMETER MEASURED: inhibition at 1 µM (%)

NC(=O)N(O)Cc1ccc(OCCc2csc(-c3ccc(C(F)(F)F)cc3)n2)cc1; 57
Cc1oc(-c2ccc(F)cc2)nc1CCOc1ccc(CN(O)C(N)=O)cc1; 70
Cc1oc(-c2ccc(SC(F)(F)F)cc2)nc1CCOc1ccc(CN(O)C(N)=O)cc1; 50
